Test: Half life in Sprague-Dawley rat at 1 mg/kg,iv
Format: ADME, organism-based
Details: in vivo
MEASURED QUANTITY: half-life (min)
Give the value in min but do not write min after it.

Give its half-life value. Item: "O=c1[nH]c(=O)n(COCc2ccccc2)c(Sc2cc(F)ccc2F)c1C1CC1"
30.8

###

# pEC50 annotations
Tested on: Human immunodeficiency virus 1
Assay: Antiviral activity against HIV1 harboring K103 N mutant infected in human MT4 cells assessed as protection against virus-induced cytopathicity
Assay type: functional, organism-based
Settings: Human immunodeficiency virus 1, MT4
Value format note: pEC50 is -log10 of concentration (mol/L); just state the number.

The following compounds have reported results that may help.
STRUCTURE | MEASURED QUANTITY | OBSERVED MEASUREMENT
O=c1[nH]c(=O)n(COCc2ccccc2)c(Sc2cc(Cl)ccc2Cl)c1C1CC1 | pEC50 | 5.82
O=c1[nH]c(=O)n(COCc2ccccc2)c(Sc2cc(F)cc(F)c2)c1C1CC1 | pEC50 | 5.52
O=c1[nH]c(=O)n(COCc2ccccc2)c(Sc2cccc(Cl)c2)c1C1CC1 | pEC50 | 5.43

Give its pEC50 value. Item: "O=c1[nH]c(=O)n(COCc2ccccc2)c(Sc2ccccc2Br)c1C1CC1"
5.14

// same read-out, input: "O=c1[nH]c(=O)n(COCc2ccccc2)c(Sc2cccc(F)c2)c1C1CC1"
5.52

###

Assay: AUC (0-t) in Sprague-Dawley rat at 1 mg/kg,iv
Format: ADME, organism-based
Parameters: dose 1 mg/kg, route iv
Settings: in vivo
MEASURED QUANTITY: AUC(0-t) (ng·h/mL)
Give the value in ng·h/mL but do not write ng·h/mL after it.

Give its AUC(0-t) value. Item: "O=c1[nH]c(=O)n(COCc2ccccc2)c(Sc2cc(F)ccc2F)c1C1CC1"
1100

###

Molecular target: Cytochrome P450 2C19 (Homo sapiens)
Sequence (P33261 whole entry): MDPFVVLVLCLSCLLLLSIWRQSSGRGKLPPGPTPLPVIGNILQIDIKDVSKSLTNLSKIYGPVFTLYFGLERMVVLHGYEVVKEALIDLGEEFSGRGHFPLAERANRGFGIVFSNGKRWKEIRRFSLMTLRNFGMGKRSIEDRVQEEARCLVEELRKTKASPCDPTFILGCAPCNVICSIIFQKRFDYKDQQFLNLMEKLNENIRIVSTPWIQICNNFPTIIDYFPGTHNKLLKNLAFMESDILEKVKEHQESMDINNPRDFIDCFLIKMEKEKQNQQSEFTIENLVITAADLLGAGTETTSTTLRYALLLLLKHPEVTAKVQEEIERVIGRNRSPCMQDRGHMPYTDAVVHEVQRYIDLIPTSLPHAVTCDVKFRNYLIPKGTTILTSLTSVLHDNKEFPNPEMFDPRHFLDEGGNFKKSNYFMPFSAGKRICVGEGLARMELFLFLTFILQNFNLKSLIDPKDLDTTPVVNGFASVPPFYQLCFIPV
Experiment: Inhibition of CYP2C19 (unknown origin)
Format: ADME
MEASURED QUANTITY: pIC50
Value format note: pIC50 is -log10 of concentration (mol/L); just state the number.

Give its pIC50 value. Item: "O=c1[nH]c(=O)n(COCc2ccccc2)c(Sc2cc(F)ccc2F)c1C1CC1"
4.52

###

Biological target: UniProtKB Q12809
Sequence (Q12809 whole entry): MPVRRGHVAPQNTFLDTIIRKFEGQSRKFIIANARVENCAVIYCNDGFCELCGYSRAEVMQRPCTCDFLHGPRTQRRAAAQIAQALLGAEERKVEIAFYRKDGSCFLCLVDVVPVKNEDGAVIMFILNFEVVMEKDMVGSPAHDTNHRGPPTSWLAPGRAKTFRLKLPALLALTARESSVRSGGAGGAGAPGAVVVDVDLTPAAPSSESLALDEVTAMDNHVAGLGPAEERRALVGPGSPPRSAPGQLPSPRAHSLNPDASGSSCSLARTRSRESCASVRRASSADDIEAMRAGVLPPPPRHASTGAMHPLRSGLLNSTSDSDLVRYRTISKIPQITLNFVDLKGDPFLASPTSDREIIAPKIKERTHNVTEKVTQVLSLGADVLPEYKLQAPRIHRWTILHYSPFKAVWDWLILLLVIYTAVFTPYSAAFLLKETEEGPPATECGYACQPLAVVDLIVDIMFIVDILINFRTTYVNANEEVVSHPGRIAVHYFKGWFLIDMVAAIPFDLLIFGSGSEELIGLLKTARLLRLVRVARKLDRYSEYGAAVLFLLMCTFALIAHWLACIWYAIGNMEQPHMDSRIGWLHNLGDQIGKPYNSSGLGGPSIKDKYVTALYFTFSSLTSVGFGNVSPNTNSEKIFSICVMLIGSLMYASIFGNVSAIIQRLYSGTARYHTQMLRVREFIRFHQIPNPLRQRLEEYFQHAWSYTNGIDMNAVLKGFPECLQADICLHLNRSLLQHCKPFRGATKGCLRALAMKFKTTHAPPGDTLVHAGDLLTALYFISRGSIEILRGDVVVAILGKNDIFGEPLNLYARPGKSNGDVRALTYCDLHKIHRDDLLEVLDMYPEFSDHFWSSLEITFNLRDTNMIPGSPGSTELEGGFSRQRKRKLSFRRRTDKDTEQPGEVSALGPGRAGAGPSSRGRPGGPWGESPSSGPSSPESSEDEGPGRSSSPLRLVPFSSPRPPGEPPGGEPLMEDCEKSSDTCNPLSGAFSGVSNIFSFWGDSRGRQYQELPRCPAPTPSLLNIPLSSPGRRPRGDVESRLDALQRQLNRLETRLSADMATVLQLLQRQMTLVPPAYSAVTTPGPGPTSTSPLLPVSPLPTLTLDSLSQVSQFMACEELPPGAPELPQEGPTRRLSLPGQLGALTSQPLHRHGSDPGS
Assay: Inhibition of human ERG potassium channel expressed in CHO cells by manual patch clamp method
pIC50: −log10 of the molar value.
MEASURED QUANTITY: pIC50

Give its pIC50 value. Item: "O=c1[nH]c(=O)n(COCc2ccccc2)c(Sc2cc(F)ccc2F)c1C1CC1"
< 4.40

###

# selectivity ratio annotations
Assay: Selectivity index, ratio of CC50 for cytotoxicity against human MT4 cells to EC50 for antiviral activity against wild type HIV1 IIIB infected in human MT4 cells
Type: toxicity, cell-based
Details: read-out: Ratio CC50/EC50
// no unit string in output, number only

The following compounds have reported results that may help.
STRUCTURE | OBSERVED MEASUREMENT
COc1ccccc1Sc1c(C2CC2)c(=O)[nH]c(=O)n1COCc1ccccc1 | 197
O=c1[nH]c(=O)n(COCc2ccccc2)c(Sc2ccccc2Cl)c1C1CC1 | 515
O=c1[nH]c(=O)n(COCc2ccccc2)c(Sc2c(Cl)cccc2Cl)c1C1CC1 | 7

Let us move to another entry and its selectivity ratio.
Give its selectivity ratio value. Item: "O=c1[nH]c(=O)n(COCc2ccccc2)c(Sc2ccc(Cl)cc2Cl)c1C1CC1"
6

###

Target: Cytochrome P450 2C9 (Homo sapiens, UniProt P11712)
Sequence (P11712 whole entry): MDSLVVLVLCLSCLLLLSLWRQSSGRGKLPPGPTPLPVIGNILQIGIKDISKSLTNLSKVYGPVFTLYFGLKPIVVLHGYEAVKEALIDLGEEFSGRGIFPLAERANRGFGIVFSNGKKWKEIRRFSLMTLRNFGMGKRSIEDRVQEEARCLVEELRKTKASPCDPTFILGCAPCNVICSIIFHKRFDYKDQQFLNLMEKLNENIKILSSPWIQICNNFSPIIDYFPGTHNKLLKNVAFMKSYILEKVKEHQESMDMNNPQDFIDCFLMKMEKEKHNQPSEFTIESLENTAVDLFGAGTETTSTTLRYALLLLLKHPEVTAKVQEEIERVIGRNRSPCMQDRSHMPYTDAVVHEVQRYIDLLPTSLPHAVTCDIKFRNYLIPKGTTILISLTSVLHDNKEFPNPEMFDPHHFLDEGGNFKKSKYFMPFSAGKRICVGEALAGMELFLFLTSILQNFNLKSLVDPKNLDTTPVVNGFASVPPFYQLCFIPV
MEASURED QUANTITY: pIC50
Value format note: pIC50 is -log10 of concentration (mol/L); just state the number.

Give its pIC50 value. Item: "O=c1[nH]c(=O)n(COCc2ccccc2)c(Sc2cc(F)ccc2F)c1C1CC1"
4.56

###

Experiment: Cytotoxicity against human MT4 cells assessed as reduction in cell viability
Format: toxicity, cell-based
MEASURED QUANTITY: CC50 (µM)
Give the value in µM but do not write µM after it.

STRUCTURE | CC50 [µM]
O=c1[nH]c(=O)n(COCc2ccccc2)c(Sc2ccc(Br)cc2)c1C1CC1 | 25.9

Give its CC50 value. Item: "COc1ccc(Sc2c(C3CC3)c(=O)[nH]c(=O)n2COCc2ccccc2)c(OC)c1"
30.9

// same read-out, input: "COc1cccc(Sc2c(C3CC3)c(=O)[nH]c(=O)n2COCc2ccccc2)c1"
33.1

###

Assay: Cytotoxicity against human MT4 cells assessed as reduction in cell viability
Assay type: toxicity, cell-based
MEASURED QUANTITY: CC50 (µM)
Give the value in µM but do not write µM after it.

The following molecules have reported results that may help.
MOLECULE | DISPLAY UNIT | CC50
Cc1c(Sc2ccccc2)n(COCCO)c(=O)[nH]c1=O [HEPT] | µM | 740
COc1ccc(Sc2c(C3CC3)c(=O)[nH]c(=O)n2COCc2ccccc2)cc1 | µM | 44.6
COc1ccc(OC)c(Sc2c(C3CC3)c(=O)[nH]c(=O)n2COCc2ccccc2)c1 | µM | 33.4
O=c1[nH]c(=O)n(COCc2ccccc2)c(Sc2ccc(F)cc2F)c1C1CC1 | µM | 33.5
O=c1[nH]c(=O)n(COCc2ccccc2)c(Sc2ccccc2Cl)c1C1CC1 | µM | 27.3

Let us move to another entry and its CC50.
Give its CC50 value. Item: "O=c1[nH]c(=O)n(COCc2ccccc2)c(Sc2cc(F)ccc2F)c1C1CC1"
39.2

###

Experiment: Tmax in Sprague-Dawley rat at 1 mg/kg,iv
Type: ADME, organism-based
Settings: in vivo
MEASURED QUANTITY: Tmax (min)
Give the value in min but do not write min after it.

Give its Tmax value. Item: "O=c1[nH]c(=O)n(COCc2ccccc2)c(Sc2cc(F)ccc2F)c1C1CC1"
4.98

###

Test: AUC (0-infinity) in Sprague-Dawley rat at 1 mg/kg,iv
Format: ADME, organism-based
Set-up: dose 1 mg/kg, route iv
Details: in vivo
MEASURED QUANTITY: AUC(0-inf) (ng·h/mL)
Give the value in ng·h/mL but do not write ng·h/mL after it.

Give its AUC(0-inf) value. Item: "O=c1[nH]c(=O)n(COCc2ccccc2)c(Sc2cc(F)ccc2F)c1C1CC1"
1100

###

Assay: Clearance in Sprague-Dawley rat at 1 mg/kg,iv
Assay type: ADME, organism-based
Settings: in vivo
MEASURED QUANTITY: clearance (mL/min/kg)
Give the value in mL/min/kg but do not write mL/min/kg after it.

Give its clearance value. Item: "O=c1[nH]c(=O)n(COCc2ccccc2)c(Sc2cc(F)ccc2F)c1C1CC1"
15.6

###

Assay: Cytotoxicity against human MT4 cells assessed as reduction in cell viability
Format: toxicity, cell-based
Just a reminder that ties go to Not satisfied: only CC50 strictly below 30 µM counts as Satisfied.

STRUCTURE | LABEL CLASS
O=c1[nH]c(=O)n(COCc2ccccc2)c(Sc2ccccn2)c1C1CC1 | Not satisfied
O=c1[nH]c(=O)n(COCc2ccccc2)c(Sc2cccc(F)c2)c1C1CC1 | Not satisfied
O=c1[nH]c(=O)n(COCc2ccccc2)c(Sc2cccc(Cl)c2Cl)c1C1CC1 | Satisfied
O=c1[nH]c(=O)n(COCc2ccccc2)c(Sc2ccccc2F)c1C1CC1 | Not satisfied
O=c1[nH]c(=O)n(COCc2ccccc2)c(Sc2c(F)cccc2F)c1C1CC1 | Satisfied

Quick check: does "O=c1[nH]c(=O)n(COCc2ccccc2)c(Sc2ccccc2)c1C1CC1" have CC50 under 30 µM?
Not satisfied

###

Target: Cytochrome P450 3A4 (Homo sapiens, UniProt P08684)
Sequence (P08684 whole entry): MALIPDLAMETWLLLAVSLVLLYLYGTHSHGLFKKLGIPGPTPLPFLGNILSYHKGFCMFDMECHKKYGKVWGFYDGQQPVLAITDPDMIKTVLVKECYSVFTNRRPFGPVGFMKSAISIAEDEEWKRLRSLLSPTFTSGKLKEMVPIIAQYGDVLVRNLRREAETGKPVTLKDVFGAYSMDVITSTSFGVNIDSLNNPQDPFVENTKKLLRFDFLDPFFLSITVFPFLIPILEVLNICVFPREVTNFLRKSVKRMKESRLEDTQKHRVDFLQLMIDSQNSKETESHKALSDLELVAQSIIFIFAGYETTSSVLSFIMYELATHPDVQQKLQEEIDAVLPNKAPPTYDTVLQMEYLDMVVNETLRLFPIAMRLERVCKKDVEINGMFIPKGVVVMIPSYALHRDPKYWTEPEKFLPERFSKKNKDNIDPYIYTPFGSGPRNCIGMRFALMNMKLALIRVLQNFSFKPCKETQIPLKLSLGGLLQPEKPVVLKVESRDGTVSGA
Experiment: Inhibition of CYP3A4M (unknown origin)
Type: ADME
pIC50: −log10 of the molar value.
MEASURED QUANTITY: pIC50

Report pIC50 for "O=c1[nH]c(=O)n(COCc2ccccc2)c(Sc2cc(F)ccc2F)c1C1CC1" tested on Cytochrome P450 3A4 (Homo sapiens, UniProt P08684).
< 4.30

###

# pEC50 annotations
Test system: Human immunodeficiency virus 1
Assay: Antiviral activity against HIV1 harboring K103 N mutant infected in human MT4 cells assessed as protection against virus-induced cytopathicity
Type: functional, organism-based
Settings: Human immunodeficiency virus 1, MT4
Value format note: pEC50 is -log10 of concentration (mol/L); just state the number.

STRUCTURE | pEC50
O=c1[nH]c(=O)n(COCc2ccccc2)c(Sc2cc(F)ccc2F)c1C1CC1 | 5.58
Cc1ccc(C)c(Sc2c(C3CC3)c(=O)[nH]c(=O)n2COCc2ccccc2)c1 | 5.38

Let us move to another entry and its pEC50.
Give its pEC50 value. Item: "O=c1[nH]c(=O)n(COCc2ccccc2)c(Sc2ccccc2F)c1C1CC1"
5.30
